Each recorded value in this set is attributed to PubChem BioAssay (NCATS).

- System: CP325
- Experiment description: qHTS profiling for inhibitors of Plasmodium falciparum proliferation (AID 504749); note: nearly all actives have a fitted effect of over 60% in size
- Details: P. falciparum in erythrocytes, SYBR Green DNA, 72 h; series mostly up to 28.7 µM
Results filed as inconclusive are left out. Activity calls are given as the source filed them. Calls come from the whole dose curve; as a rule, active = well fitted inhibition curve with a large enough effect; inconclusive = small, poorly fitted or top-dose-only effect; inactive = flat fitted curve, though single readings scatter.
Outcomes: 1.0 for active, 0.0 for inactive

| Compound | Group label |
| --- | --- |
| CCc1cc(C(N)=S)ccn1 | 0.0 |
| Cc1cccc(Nc2ccncc2S(=O)(=O)NC(=O)NC(C)C)c1 | 0.0 |
| CC(C)(C)C(=O)OCOP(=O)(COCCn1cnc2c(N)ncnc21)OCOC(=O)C(C)(C)C | 0.0 |
| CC[C@H](NC(C)C)[C@H](O)c1ccc(O)c2[nH]c(=O)ccc12 | 0.0 |
| Cc1noc(NS(=O)(=O)c2ccc(N)cc2)c1C | 0.0 |
| CC1=CC(=O)c2ccccc2C1=O | 0.0 |
| CN1CCN(c2c(F)cc3c(=O)c(C(=O)O)cn(CCF)c3c2F)CC1 | 0.0 |
| CC1=NN(c2ccccc2)C(=O)C1 | 0.0 |
| Nc1nc(N)nc(-c2cc(Cl)ccc2Cl)n1 | 0.0 |
| CCOC(=O)c1ccc(OC(=O)CCCCCN=C(N)N)cc1 | 0.0 |
| O=S(=O)(O)CCS | 0.0 |
| CNNCc1ccc(C(=O)NC(C)C)cc1 | 0.0 |
| N=C(N)c1ccc(OCCCCCOc2ccc(C(=N)N)cc2)cc1 | 1.0 |
| CCc1c2c(nc3ccc(OC(=O)N4CCC(N5CCCCC5)CC4)cc13)-c1cc3c(c(=O)n1C2)COC(=O)[C@]3(O)CC | 0.0 |
| COc1cc([C@@H]2c3cc4c(cc3[C@H](O)[C@H]3COC(=O)[C@H]23)OCO4)cc(OC)c1OC | 1.0 |
| CN1CCN(c2c(F)cc3c(=O)c(C(=O)O)cn4c3c2OCN4C)CC1 | 0.0 |
| S=P(N1CC1)(N1CC1)N1CC1 | 0.0 |
| COc1ccc(C(=O)CC(=O)c2ccc(C(C)(C)C)cc2)cc1 | 0.0 |
| NC(=O)c1cccnc1 | 0.0 |
| O=C(O)c1cc(=O)[nH]c(=O)[nH]1 | 0.0 |
| CCCN[C@H]1CCc2nc(N)sc2C1 | 0.0 |
| COc1cc(NS(=O)(=O)c2ccc(N)cc2)nc(OC)n1 | 0.0 |
| CCC(C)(C)c1ccc(CC(C)CN2C[C@@H](C)O[C@@H](C)C2)cc1 (stereo partly drawn) | 0.0 |
| COc1ccc(-c2ccc3cc(C(=O)O)ccc3c2)cc1C12CC3CC(CC(C3)C1)C2 | 0.0 |
| Nc1ccc(S(=O)(=O)Nc2ccccn2)cc1 | 0.0 |
| Cc1ncc([N+](=O)[O-])n1CCO | 0.0 |
| COc1ccc2cc3[n+](cc2c1OC)CCc1cc2c(cc1-3)OCO2 | 1.0 |
| COc1cc2c(Nc3ccc(Br)cc3F)ncnc2cc1OCC1CCN(C)CC1 | 1.0 |
| OC(Cn1cncn1)(Cn1cncn1)c1ccc(F)cc1F | 0.0 |
| CNS(=O)(=O)Cc1ccc2[nH]cc(CCN(C)C)c2c1 | 0.0 |
| COc1nc(N)nc2c1ncn2[C@@H]1O[C@H](CO)[C@@H](O)[C@@H]1O | 0.0 |
| COc1c(N2CCNC(C)C2)c(F)cc2c(=O)c(C(=O)O)cn(C3CC3)c12 (stereo not drawn) | 0.0 |
| CNCC[C@H](Oc1cccc2ccccc12)c1cccs1 | 0.0 |
